The values you see were collected from patent US20240148745A1.

// reported viability compared to DMSO for each item listed
# Test system: iPSC-derived neurons (DIV45)
# test conditions: human

compound: Cc1c(Cc2ccc3ccccc3n2)c2cc(F)ccc2n1CC(=O)O [0C000459, TIMAPIPRANT]
viability compared to DMSO: 65-80%
//
compound: CNCc1ccc(C)c(NC(=O)c2ccc(Nc3nc(-c4ccccc4)c4ccccc4n3)cc2)c1 [BMS-833923]
viability compared to DMSO: 65-80%
//
compound: COc1cccc(OC)c1-c1cc(C(=O)NC2(C(=O)O)C3CC4CC(C3)CC2C4)nn1-c1ccnc2cc(Cl)ccc12 (stereo not shown) [Reminertant]
viability compared to DMSO: 65-80%
//
compound: CCn1c(=O)c2c(nc(/C=C/c3ccc(OC)c(OC)c3)n2C)n(CC)c1=O [Istradefylline]
viability compared to DMSO: 65-80%
